Values from PubChem BioAssay AID504332

Target: Histone-lysine N-methyltransferase EHMT2 (Homo sapiens) (UniProt Q96KQ7)
Sequence (Q96KQ7 913-1193 limits assumed): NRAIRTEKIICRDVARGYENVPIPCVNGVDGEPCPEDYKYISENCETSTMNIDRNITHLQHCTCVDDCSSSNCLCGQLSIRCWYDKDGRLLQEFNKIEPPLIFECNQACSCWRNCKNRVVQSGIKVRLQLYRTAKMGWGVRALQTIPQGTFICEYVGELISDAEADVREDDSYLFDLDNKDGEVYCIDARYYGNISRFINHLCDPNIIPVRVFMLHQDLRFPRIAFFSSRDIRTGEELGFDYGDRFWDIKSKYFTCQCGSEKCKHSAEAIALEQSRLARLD
Assay: qHTS Assay for Inhibitors of Histone Lysine Methyltransferase G9a; note: nearly all actives have a fitted effect of over 75% in size; note: potency is the fitted concentration of half-maximal effect
Conditions: G9a H3K9 monomethylation, AlphaScreen, 2 h; series mostly up to 59 µM
The whole screen tested about 350,000 compounds, of which about 31,000 (8.9%) were called active. About 15% were inconclusive and are not listed. The list comes from a sample in which actives are over-represented; it also holds close analogues and randomly drawn compounds.
MEASUREMENT_KIND: Potency

* CC1(C(=O)NCCc2c[nH]c3ccccc23)C=CC2(CCCCC2)N1C(=O)c1ccccc1 (stereo not given) | 79.4 µM (active)
* CC(=O)NC(Cc1c[nH]c2ccccc12)C(=O)NCCc1ccccc1 (stereo not given) | inactive
* Cc1cccc(C)c1NC(=O)COC(=O)c1ccccc1O | inactive
* Cc1nnc(SCC(=O)NC2CCCC2)s1 | inactive
* CN(C)/C=C1\C=C(c2ccccc2)OC1=O | 39.8 µM (active)

* * *

Target: Histone-lysine N-methyltransferase EHMT2 (Homo sapiens) (UniProt Q96KQ7)
Experiment: qHTS Assay for Inhibitors of Histone Lysine Methyltransferase G9a; note: nearly all actives have a fitted effect of over 75% in size
Conditions: G9a H3K9 monomethylation, AlphaScreen, 2 h; series mostly up to 59 µM
Hit rate of the full screen: of about 350,000 compounds, about 31,000 (8.9%) were called active. Roughly 15% stayed inconclusive and do not appear here. Calls follow the shape of the dose curve; as a rule, active = well fitted inhibition curve with a large enough effect; inconclusive = small, poorly fitted or top-dose-only effect; inactive = no such curve, though single readings can be large or run the other way. Only a selection was taken, and actives are over-represented in it overall.
Possible outcomes: TRUE = active, FALSE = inactive

- O=C(Nc1cccc(Cl)c1N1CCOCC1)c1cccnc1: FALSE
- O=C(Nc1cccc([N+](=O)[O-])c1)Nc1ccc(Cl)cn1: FALSE
- COc1ccccc1N1CC(C(=O)Nc2nnc(SCC(=O)NCC3CCCO3)s2)CC1=O (stereo not given): TRUE
- O=C(Nc1ccc(F)cc1F)N1CCCN(CCOc2ccccc2)CC1: FALSE
- COC(=O)c1cc2occc2n1Cc1nc(-c2ccc(C)cc2)oc1C: FALSE
- CCOC(=O)C(Cc1ccccc1)NC(=O)CCc1c(C)nc2c(c(C)nn2-c2ccc(C)c(C)c2)c1C (stereo not given): FALSE
- CCOC(=O)c1c(S(=O)(=O)N2CCCC(C(=O)NCc3cccc(C)c3)C2)c(C)n(C)c1C (stereo not given): FALSE
- COc1cccc(NC(=O)NCCN2CCCCC2)c1: FALSE
- O=C(Cn1c(=O)n(Cc2ccccc2)c(=O)c2sc3ccccc3c21)Nc1ccccc1F: FALSE
- C/C(=N\NS(=O)(=O)c1cccc([N+](=O)[O-])c1)c1cc2ccccc2o1: TRUE
- c1ccc2cc(OCCN3CCCC3)ccc2c1: TRUE
- Cc1cccc(N2CCN(C(=O)CCn3c(=O)c4cccn4c4cccnc43)CC2C)c1 (stereo not given): FALSE
- Cc1c(CCNC(=O)c2ccc(C(F)(F)F)cc2)sc2nc(-c3ccc(F)cc3)nn12: FALSE
- CCOC(=O)c1[nH]c(C)c(CCC(=O)NCc2ccccc2C)c1C: FALSE
- Cc1nn(Cc2ccc(F)cc2)c(C)c1NC(=O)c1cc(CC(C)C)on1: FALSE

* * *

Target: Histone-lysine N-methyltransferase EHMT2 (Homo sapiens) (UniProt Q96KQ7)
Test: qHTS Assay for Inhibitors of Histone Lysine Methyltransferase G9a; note: nearly all actives have a fitted effect of over 75% in size
Conditions: G9a H3K9 monomethylation, AlphaScreen, 2 h; series mostly up to 59 µM
In all, about 350,000 compounds went through this assay and about 31,000 (8.9%) were called active. Another 15% or so got no clear call; they are omitted. Calls follow the shape of the dose curve; as a rule, active = well fitted inhibition curve with a large enough effect; inconclusive = small, poorly fitted or top-dose-only effect; inactive = no such curve, though single readings can be large or run the other way. The full list was thinned out, with actives kept by preference.
Possible outcomes: active, inactive

• CCCCCN(C(=O)CCC(=O)OCCOc1ccc(OC)cc1)c1c(N)n(CCCC)c(=O)[nH]c1=O = inactive
• CC1CCN(S(=O)(=O)c2nnc(NC(=O)COc3ccccc3F)s2)CC1 = inactive
• Cc1ccc2nc(COc3cccc(NC(=O)Nc4ccc(C)c(Cl)c4)c3)cc(=O)n2c1 = inactive
• COc1cccc(C(=O)Nc2nnc(S(=O)(=O)N3CCCCC3)s2)c1 = inactive
• COc1ccc(Cn2ccnc2SCC(=O)NCc2ccco2)cc1 = inactive
• CN(C)c1ccc(NC(=O)CSc2n[nH]c(-c3ccco3)n2)cc1 = active
• COc1ccc(Cc2nc3ccc(C(=O)NCc4ccccc4Cl)cc3o2)cc1 = inactive
• Cc1cccc(C(=O)Nc2nnc(S(=O)(=O)N3CCCCCC3)s2)c1 = inactive
• COc1ccc(C)cc1N(C)C(=O)c1c(C)oc2ncnc(N3CCOCC3)c12 = inactive
• O=C(/C=C/c1ccc(Cl)cc1)Nc1ccc(S(=O)(=O)Nc2ncccn2)cc1 = inactive
• CCCCc1nc2cc(C(=O)NCCc3cnn(C)c3)ccc2o1 = inactive
• CCCCNC(=O)c1ccc(-n2c(=S)[nH]c3ccccc3c2=O)cc1 = inactive
• Cc1ccc(OCCC(=O)OCC(=O)N2c3ccccc3NC(=O)C2(C)C)cc1 = inactive
• Cn1c2ccccc2c2cc(/C=C(\NC(=O)c3ccccc3)C(=O)NCC(=O)O)ccc21 = active
• CC(Oc1cccc(Cl)c1)C(=O)Nc1ccc(S(=O)(=O)Nc2ncccn2)cc1 (stereo unspecified) = active
• CCc1c(C)[nH]c(=S)c(C#N)c1C = active
• Cc1ccccc1NC(=O)CSc1nc2ccc(Nc3nc(N4CCOCC4)nc(N4CCOCC4)n3)cc2s1 = inactive
• Cn1c(=O)oc2cc(S(=O)(=O)CCC(=O)NCCc3ccc(Cl)cc3)ccc21 = inactive
• O=C(CSc1n[nH]c(-c2cccnc2)n1)Nc1ccc(Cl)cc1 = inactive
• O=C(CSc1nc(Nc2ccccc2)nc(N2CCOCC2)n1)Nc1cc(Cl)ccc1O = active
• O=C(NCC(=O)N1CCCC(C(F)(F)F)C1)c1ccccc1F (stereo unspecified) = inactive
• COc1ccc(-c2nc3c4ccccc4n(CC(=O)Nc4ccc(C(C)=O)cc4)c(=O)n3n2)cc1 = inactive
• CC1(C)CC(=O)c2cnc3nc4ccccc4n3c2C1 = active
• Cc1cc(C)cc(OCC(=O)NC(C)c2ccccc2)c1 (stereo unspecified) = active
• CCOC(=O)C1(C)NC(c2ccco2)C2C(=O)N(c3ccccc3)C(=O)C21 (stereo unspecified) = inactive
• CCc1ccc(OC(C)C(=O)Nc2ccc(S(=O)(=O)Nc3cc(C)on3)cc2)cc1 (stereo unspecified) = inactive
• CC(C)OCCCn1c(SCC(=O)c2ccccc2)nc2c(sc3ccccc32)c1=O = inactive
• CCN(CC)S(=O)(=O)c1nnc(NC(=O)COc2ccccc2Cl)s1 = active
• Cc1ccccc1OCC(=O)Nc1nnc(S(=O)(=O)N2CCCC2)s1 = active
• Cc1nc(SCC(=O)Nc2ccc(C(=O)O)cc2)n[nH]1 = inactive
• COc1ccc(C)cc1-n1c(-c2ccc(C)cc2)cc2c1CC(C)(C)CC2=O = inactive
